Experiment: gradient 5% acetonitrile 3 min, to 50% in 2 min, to 85% in 15 min, held 3 min, 100 µL/min
Details: column: Zorbax Extend-C18 2.1 x 50 mm; eluents: water / acetonitrile, 0.1% formic acid
The compounds listed here are annotated with their RP-LC retention time.
Numbers only; they are read as s.

CC(=O)N(C)c1ccc(NS(=O)(=O)c2ccc(C)cc2)c([N+](=O)[O-])c1 ... 742
COc1ccc(N2C(=O)C3N=NN(c4cccc(OC)c4)C3C2=O)cc1 (stereo unspecified) ... 905
COCCOC(=O)C1=C(C)NC2=C(C(=O)C(C(=O)OC)C(C)C2)C1c1ccccc1F (stereo unspecified) ... 806

Prompt: Give RP-LC retention time for the following compound: NS(=O)(=O)c1ccc(CCNC(=O)Cn2nc3c(N4CCOCC4)nccn3c2=O)cc1
Response: 613

Prompt: Give RP-LC retention time for the following compound: Cc1noc(C2CN(C(=O)NCc3cccc(F)c3)CC23CCOCC3)n1 (stereo unspecified)
Response: 706

Prompt: Give the reported value of RP-LC retention time for this record: C=C1CC(COc2cc(=O)oc3ccccc23)(c2ccccc2)OC1=O (stereo unspecified)
Response: 885

Prompt: Kindly indicate its recorded RP-LC retention time. Item: Cc1noc(C)c1CNC(=O)c1ccccn1
Response: 648

Prompt: Give RP-LC retention time for O=c1ccc(-c2ccc(Cl)cc2)nn1CCCNS(=O)(=O)Cc1ccccc1
Response: 579

Prompt: Quote RP-LC retention time reported for CC(C)N1C(=O)c2cccnc2Sc2cc(NC(=O)C3CCCC3)ccc21 please.
Response: 860

Prompt: Give recorded RP-LC retention time. CC[C@H](C)C(=O)O[C@H]1C[C@H](O)C=C2C=C[C@H](C)[C@H](CC[C@@H]3C[C@@H](O)CC(=O)O3)[C@H]21
Response: 891

Prompt: Return the recorded RP-LC retention time value; entry: COc1ccc(CNC(=O)C2(C)CCN(C(=O)NCc3ccco3)CC2)cc1
Response: 700

Prompt: Tell me RP-LC retention time reported for O=C(CCc1c(-c2ccc(Cl)cc2)nc2ccccn12)NCCC1=CCCCC1
Response: 756

* * *

Assay: gradient 5% acetonitrile 3 min, to 50% in 2 min, to 85% in 15 min, held 3 min, 100 µL/min
Conditions: column: Zorbax Extend-C18 2.1 x 50 mm; eluents: water / acetonitrile, 0.1% formic acid
Rule: T for RP-LC retention time not less than 900 s, F for anything less.

The following molecules have reported results that may help.
Cc1cc(C)cc(NC(=O)N2CCC(n3cnc4ccccc4c3=O)CC2)c1 ... F
CCOc1cc(=O)n2c(c1C(=O)OCc1ccc(Cl)cc1)CCCC2 ... T
CCN(CC)CCCNC(=O)C1CCCN(c2ncc(-c3ccc(F)cc3)cn2)C1 (configuration not stated) ... F
CCn1ncc(CN2CCC[C@H]2c2nc(-c3ccccc3)n[nH]2)c1C ... F

Now turn to the next molecule.
Prompt: Exam item: decide whether the reported RP-LC retention time for Cc1cc(C(=O)NCc2ccc(C)o2)c2ccccc2n1 is at least 900 s.
Response: F

* * *

Measured RP-LC retention time accompanies every entry in the list below.
Test: gradient 5% acetonitrile 3 min, to 50% in 2 min, to 85% in 15 min, held 3 min, 100 µL/min
Settings: column: Zorbax Extend-C18 2.1 x 50 mm; eluents: water / acetonitrile, 0.1% formic acid
Numbers only; they are read as s.

Cc1ccc(-n2nc3c(=O)n(CCCC(=O)N4CCC(C(N)=O)CC4)nc(C)c3c2C)cc1 ... 648

Prompt: State, in one line, measured RP-LC retention time of COc1ccc(NC(=O)Cc2nnc(-c3ccc4ncccc4c3)o2)cc1
Response: 685

Prompt: Give the value of RP-LC retention time reported for the following: Cc1nn2c(CNS(=O)(=O)Cc3ccc(Cl)cc3)c(-c3ccccc3)nc2s1
Response: 954

Prompt: Could you please provide reported RP-LC retention time for Cc1ccc2ncn(C3CCN(C(=O)Nc4cc(Cl)ccc4C)CC3)c(=O)c2c1 ? Thanks!
Response: 911

Prompt: Output RP-LC retention time of Cc1oc(-c2[nH]ncc2C(=O)N2CCCC2)cc1S(=O)(=O)Nc1ccccc1
Response: 685

Prompt: For Cc1cc(C)cc(NC(=O)C2CCN(C(=O)C3Sc4ccccc4NC3=O)CC2)c1 (configuration not stated) , write its RP-LC retention time.
Response: 818

Prompt: For the compound CN(C)S(=O)(=O)c1ccc2c(c1)N(CC(=O)NCc1ccc(F)cc1)C(=O)C1CCCCN21 (configuration not stated) , give its measured RP-LC retention time value.
Response: 896

Prompt: Give reported RP-LC retention time value for CCOC(=O)c1nc(NCc2ccc3c(c2)OCO3)c2ccccc2n1
Response: 719

Prompt: Find the measured RP-LC retention time of Cc1ccc(NC(=O)C2CCCN(c3ccc(-n4ccnc4)nn3)C2)cc1F (configuration not stated) and report it.
Response: 597

Prompt: Please give the documented RP-LC retention time of CC(C)n1cc(S(=O)(=O)NCc2cccc(F)c2)c2cccnc21
Response: 926

Prompt: Supply reported RP-LC retention time belonging to this compound: COc1ccc(-c2cc(N3CCN(C(=O)NCC(C)C)CC3)ncn2)cc1OC
Response: 623

Prompt: Tell me measured RP-LC retention time for Fc1ccc(Nc2c(-c3ccccc3)nc3ccccn23)cc1 please.
Response: 689

* * *

Experiment: gradient 5% acetonitrile 3 min, to 50% in 2 min, to 85% in 15 min, held 3 min, 100 µL/min
Settings: column: Zorbax Extend-C18 2.1 x 50 mm; eluents: water / acetonitrile, 0.1% formic acid
property-measured: RP-LC retention time (s)
Give a bare numeral; the unit s is implied.

The examples below pair each entry with its known result.
Cc1noc(C)c1CNC(=O)c1ccc(OC(F)(F)F)cc1 ... 825
CN(C)c1ccc(C(=O)Nc2cc(-c3cccnc3)no2)cc1 ... 738
CCc1cc(C2CCCN2C(=O)Nc2ccc(C(=O)OC)cc2)on1 (stereo not drawn) ... 801

Continue with the compound presented below.
Prompt: Indicate the recorded RP-LC retention time value for this compound: CC(C)NC(=O)C1CCCN(c2nc3ncn(CC(=O)NC4CCc5ccccc54)c(=O)c3s2)C1 (stereo not drawn)
Response: 709

* * *

Assay: gradient 5% acetonitrile 3 min, to 50% in 2 min, to 85% in 15 min, held 3 min, 100 µL/min
Conditions: column: Zorbax Extend-C18 2.1 x 50 mm; eluents: water / acetonitrile, 0.1% formic acid
Entries whose RP-LC retention time is below 900 s take fulfilled; entries at or above 900 s take not fulfilled.

O=C(Nc1ccc(Br)cc1F)C1CCCN(S(=O)(=O)Cc2ccc(F)cc2)C1 (stereo not given) ... not fulfilled

Prompt: Would you kindly verify if RP-LC retention time of CCCN1C(=O)CCc2cc(NS(=O)(=O)c3ccc(CC(C)C)cc3)ccc21 is strictly less than 900 s?
Response: not fulfilled

Prompt: Below 900 s on RP-LC retention time? Entry Cn1nc(-c2nc(Cc3ccccc3)no2)c2c1CCN(C(=O)C1CCCO1)C2 (stereo not given)
Response: fulfilled

Prompt: Determine if COc1ccc(OC)c(Nc2c(-c3ccc(Cl)cc3)nc3cnccn23)c1 shows RP-LC retention time strictly lower than 900 s.
Response: not fulfilled

Prompt: Does the reported RP-LC retention time of the following compound sit strictly below 900 s? O=C(CN1C(=O)CCc2cc(Br)ccc21)NCCc1ccccc1
Response: fulfilled

* * *

Test: gradient 5% acetonitrile 3 min, to 50% in 2 min, to 85% in 15 min, held 3 min, 100 µL/min
Conditions: column: Zorbax Extend-C18 2.1 x 50 mm; eluents: water / acetonitrile, 0.1% formic acid
property-measured: RP-LC retention time
Returns: string containing the numeric result and its unit.

Solved entries:
CCCCNC(=O)C1CCN(c2ccc(Sc3cc(C)ccc3C)nn2)CC1 ... 819 s
Cc1cc(C)c2c(N3CCCCC3)nc(C(=O)NCCN3CCOCC3)nc2n1 ... 550 s
CCn1c(=O)sc2cc(S(=O)(=O)N3CCC(C(=O)N(C)c4ccc(C)cc4)CC3)ccc21 ... 953 s

Proceeding to the next compound to report its RP-LC retention time.
Prompt: Look up RP-LC retention time of COc1ccc(NC(=O)C2CCN(S(=O)(=O)c3ccc4[nH]c5c(c4c3)CCCCC5)CC2)cc1 and report it.
Response: 1040 s

* * *

Assay: gradient 5% acetonitrile 3 min, to 50% in 2 min, to 85% in 15 min, held 3 min, 100 µL/min
Conditions: column: Zorbax Extend-C18 2.1 x 50 mm; eluents: water / acetonitrile, 0.1% formic acid
property-measured: RP-LC retention time (s)
Form entry: value (s) — number only.

Solved entries (count: 5):
O=C(Nc1cnn(-c2ncc(N3CCCC3)cn2)c1)Nc1ccccc1C(F)(F)F ... 850
CCNc1cc(N2CCC(CCC(=O)NCCN3CCc4ccccc4C3)CC2)ncn1 ... 572
Cc1noc(C)c1CNC(=O)c1cccc(OC(F)(F)F)c1 ... 864
CC(C)CC(=O)N1CCCC(c2nc(CCNC(=O)C3CCC3)cs2)C1 (stereo unspecified) ... 734
Cc1ccc(NC(=O)N2CC(n3cnnc3-c3ccccc3)C2)cc1C ... 715

Please find the next compound below.
Prompt: Complete the entry with RP-LC retention time for Cc1cc(S(=O)(=O)N2CCN(c3nc4ccncc4n(C)c3=O)CC2)ccc1F
Response: 682
